- assay_target: T1, human EphA4 (Homo sapiens, UniProt P54764)
- T1 construct: made in house; not restated for the human SEAP-His protein
- T1 sequence (P54764 20-547): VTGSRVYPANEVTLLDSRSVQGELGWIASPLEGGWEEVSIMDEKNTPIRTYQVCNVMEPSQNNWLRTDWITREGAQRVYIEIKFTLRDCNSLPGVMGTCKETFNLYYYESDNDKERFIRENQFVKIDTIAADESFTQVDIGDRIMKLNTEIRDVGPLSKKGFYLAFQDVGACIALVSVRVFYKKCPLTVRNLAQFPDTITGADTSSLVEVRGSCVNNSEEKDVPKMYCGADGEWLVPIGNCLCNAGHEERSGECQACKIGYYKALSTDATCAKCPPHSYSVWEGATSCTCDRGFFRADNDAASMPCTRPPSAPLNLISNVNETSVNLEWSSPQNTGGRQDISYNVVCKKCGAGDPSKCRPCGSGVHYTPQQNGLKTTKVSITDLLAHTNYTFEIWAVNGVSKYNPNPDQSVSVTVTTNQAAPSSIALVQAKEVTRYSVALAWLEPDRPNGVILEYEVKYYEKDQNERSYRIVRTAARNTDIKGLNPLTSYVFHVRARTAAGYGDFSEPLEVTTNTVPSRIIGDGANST
- experiment: Affinity of humanized antibodies by SPR (Biacore T200)
- Format: binding
- conditions: human EphA4 extracellular region-SEAP-His; 1:1 binding model
recorded_endpoint: kd (s⁻¹)
Numbers only, in s⁻¹.

{"molecule": "153 (antibody, V domains shown, synthetic humanized antibody heavy chain variable region sequence; synthetic humanized antibody light chain variable region sequence) VH: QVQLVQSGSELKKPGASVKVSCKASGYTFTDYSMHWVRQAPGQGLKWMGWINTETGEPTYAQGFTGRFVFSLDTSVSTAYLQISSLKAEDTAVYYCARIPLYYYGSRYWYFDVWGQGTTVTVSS VL: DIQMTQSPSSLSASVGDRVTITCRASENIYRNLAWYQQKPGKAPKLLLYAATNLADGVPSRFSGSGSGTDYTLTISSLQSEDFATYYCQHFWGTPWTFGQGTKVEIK", "kd (s⁻¹)": 0.0006}

Below are some molecules; for each one, tell me its kd.
1. 78 (antibody, V domains shown, synthetic humanized antibody heavy chain variable region sequence; synthetic humanized antibody light chain variable region sequence) VH: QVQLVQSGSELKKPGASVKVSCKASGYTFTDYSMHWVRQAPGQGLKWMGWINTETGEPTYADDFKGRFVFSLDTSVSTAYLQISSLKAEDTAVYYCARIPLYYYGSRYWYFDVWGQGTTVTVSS VL: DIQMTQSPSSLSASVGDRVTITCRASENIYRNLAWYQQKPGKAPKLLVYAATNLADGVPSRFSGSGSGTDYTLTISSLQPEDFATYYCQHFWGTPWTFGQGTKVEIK
2. 159 (antibody, V domains shown, synthetic humanized antibody heavy chain variable region sequence; synthetic humanized antibody light chain variable region sequence) VH: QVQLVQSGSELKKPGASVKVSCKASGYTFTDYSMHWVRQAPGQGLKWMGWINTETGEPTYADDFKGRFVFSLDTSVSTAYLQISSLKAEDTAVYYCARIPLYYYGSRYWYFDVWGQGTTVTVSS VL: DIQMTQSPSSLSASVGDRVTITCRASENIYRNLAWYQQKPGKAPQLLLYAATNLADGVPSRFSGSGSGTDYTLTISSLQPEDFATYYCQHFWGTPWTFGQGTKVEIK
3. 90 (antibody, V domains shown, constant regions without entry; synthetic humanized antibody light chain variable region sequence; synthetic humanized antibody heavy chain variable region sequence) VL: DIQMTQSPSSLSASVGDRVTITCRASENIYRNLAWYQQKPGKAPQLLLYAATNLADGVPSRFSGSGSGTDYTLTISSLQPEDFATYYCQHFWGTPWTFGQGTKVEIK VH: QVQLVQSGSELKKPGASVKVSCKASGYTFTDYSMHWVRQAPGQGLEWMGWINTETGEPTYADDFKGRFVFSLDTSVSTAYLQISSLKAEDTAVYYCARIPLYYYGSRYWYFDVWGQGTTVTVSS
4. 93 (antibody, V domains shown, constant regions without entry; synthetic humanized antibody light chain variable region sequence; synthetic humanized antibody heavy chain variable region sequence) VL: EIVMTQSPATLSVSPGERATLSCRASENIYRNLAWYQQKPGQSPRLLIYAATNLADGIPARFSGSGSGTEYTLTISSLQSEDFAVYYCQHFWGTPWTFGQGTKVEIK VH: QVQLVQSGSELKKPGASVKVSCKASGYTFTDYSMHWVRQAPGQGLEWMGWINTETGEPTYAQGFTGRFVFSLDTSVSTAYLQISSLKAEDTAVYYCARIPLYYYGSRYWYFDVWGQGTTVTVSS
5. 73 (antibody, V domains shown, synthetic humanized antibody heavy chain variable region sequence; synthetic humanized antibody light chain variable region sequence) VH: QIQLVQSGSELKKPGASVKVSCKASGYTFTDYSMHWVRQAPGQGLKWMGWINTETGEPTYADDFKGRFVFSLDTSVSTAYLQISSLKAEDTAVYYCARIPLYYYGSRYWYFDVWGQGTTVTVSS VL: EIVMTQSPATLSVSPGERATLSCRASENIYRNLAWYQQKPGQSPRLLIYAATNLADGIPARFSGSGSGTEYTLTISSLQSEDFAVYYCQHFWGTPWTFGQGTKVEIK

Result:
[0.00039, 0.00061, 0.00055, 0.00024, 0.00027]

Entry source: patent US10428140B2
